- System: LXRa homodimer (NR concentration 270 nM)
- method-description: PBM binding z-score (relative to random genomic background probes); higher = stronger binding; sequences stand for … in GC…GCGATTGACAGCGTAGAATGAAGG
Decision: PBM binding z-score compared against 0.2; not below it gives class 1, below it gives class 0.

residue-codes	assigned-class
ATCGAAAGTTCGTGAGGTGAGTATACAGAAAGGC	class 0
CCTACTAGGCCATCAGGTCATTGATATCAACGTT	class 1
CGTCCAAGGTCAAAGGTCGGTGAAGAGATGACGG	class 1
CCAGACAGGTGACAGGTAACTCAGTCTGGTACGC	class 0

query: Confirm if PBM binding z-score reported for the sequence ACTAGCAGGCCAAGTTTGGGTCACTCACACAAAG is 0.2 or above.
result: class 0

query: Does the sequence TATACAGGGTCAAAGGCCAGCGTACGAATGTCGA have recorded PBM binding z-score that is 0.2 or more?
result: class 1

query: Answer whether PBM binding z-score of ACTATTAGTTGACTTAGGACAACCGATACGACGC is greater than or equal to 0.2.
result: class 1

query: Say whether ATCTCTAGGTAAGAAGTTCAGTGAAAGAGAGGAC shows PBM binding z-score of 0.2 or more.
result: class 1

query: Check the entry CCTACCAGGCCAGGGTCACTCAAGCATTTCGCTT : does PBM binding z-score equal or exceed 0.2?
result: class 0

query: Form field: PBM binding z-score at least 0.2? Entry: TCTTGTAGATTAACAGGAGGTTAAGAAAGATCGA
result: class 1

query: Test whether the sequence TAGCCTGGGTCATGGGCCAGTATACCACGCGAAC records PBM binding z-score of 0.2 or higher.
result: class 0
